Reported values of melting point for individual entries
Numbers only here, please. The scale is °C.

Would you please look over these solved cases?
| ITEM_SMILES | UNIT_TAG | melting point |
| --- | --- | --- |
| Cc1c2ccccc2cc2c1ccc1ccccc12 | °C | 141 |
| CCCSc1ccc2[nH]c(NC(=O)OC)nc2c1 | °C | 209 |
| Cc1cnccc1N | °C | 108 |
| Cc1cc2c(cc1O)[C@@]1(C)CCCC(C)(C)[C@@H]1CC2=O | °C | 250 |
| CCOC(=O)c1ccco1 | °C | 34.5 |

Query block: Any idea what its melting point is? The compound is CCCCCCCCCCOc1c(OC)cc(C(N)=O)cc1OC
Result block: 122

Query block: Could you share which melting point value was measured for O=[N+]([O-])c1ccccc1-c1ccccc1 ?
Result block: 37.2

----------
- CONDITION_DETAILS: fish
# binarize log10 biotransformation half-life (days): threshold -0.06 inclusive, high side 1, low side -1

| COMPOUND | CLASS_NAME |
| --- | --- |
| CNc1ccccc1C | -1 |

Query block: For this compound, is measured log10 biotransformation half-life (days) -0.06 or higher? Nc1ccc([N+](=O)[O-])cc1
Result block: -1

Query block: API: above_or_equal(metric=log10 biotransformation half-life (days), cutoff=-0.06) for item ClC1=C(Cl)C2(Cl)C3C4OC4C(Cl)C3C1(Cl)C2(Cl)Cl (stereo not drawn)
Result block: 1

Query block: // inclusive: log10 biotransformation half-life (days) at least -0.06? input: CCC(C)n1c(=O)[nH]c(C)c(Br)c1=O (stereo not drawn)
Result block: -1

Query block: Record CCc1ccc2ccc3cccc4ccc1c2c34 ; criterion: log10 biotransformation half-life (days) no lower than -0.06. Met?
Result block: 1

Query block: Given C=CCCl , state whether its log10 biotransformation half-life (days) is at least -0.06.
Result block: -1

Query block: Has Clc1ccc(Cl)c(-c2ccc(Cl)c(Cl)c2)c1 a recorded log10 biotransformation half-life (days) greater than or equal to -0.06?
Result block: 1

----------
# boiling point per record follows

Previously resolved entries follow.
| COMPOUND | boiling point |
| --- | --- |
| OCCCC(F)(F)F | 125 °C |
| CCc1ccnc(C)c1 | 179 °C |
| COC(=O)COc1ccccc1 | 245 °C |
| CC=CC=CC(=O)OCC | 196 °C |
| c1ccc2cc3ccccc3cc2c1 | 340 °C |

With those in mind, consider the next compound.
Query block: May I ask what boiling point has been recorded for C=C(Cl)c1ccccc1 ?
Result block: 199 °C

----------
QUANTITY_KIND: logP
Returns: the value as a bare number; no unit string appended.

Known logP results, listed for orientation:
| ITEM_SMILES | logP |
| --- | --- |
| Brc1ccc(Oc2ccccc2Br)c(Br)c1 | 5.74 |
| Brc1cc(Br)c(Oc2cc(Br)c(Br)cc2Br)cc1Br | 7.9 |

Next, consider the following molecule.
Query block: Report logP for Brc1ccc(Oc2ccc(Br)cc2Br)c(Br)c1 please.
Result block: 6.81

----------
# maps each entry to its boiling point
I only need the number, in °C, no unit after it.

| COMPOUND | boiling point / °C |
| --- | --- |
| CC(CCCl)OCCCl (centres undefined) | 195 |
| CCCC(C)(C)c1ccccc1 | 206 |
| O=C(Cl)c1ccccc1Cl | 238 |
| CC(C)(C)SC(C)(C)C | 149 |
| Cc1cccs1 | 113 |

Query block: Given the compound SCCS , what is its reported boiling point?
Result block: 146

Query block: Return reported boiling point; argument: FC(Cl)(Cl)c1ccccc1
Result block: 179

Query block: Entry N#Cc1ccccc1 : reported boiling point = ?
Result block: 191

Query block: Fill in: boiling point of Fc1ccccc1 is ___
Result block: 84.7

Query block: Query: boiling point; subject: Oc1ccc2c(c1)CCCC2
Result block: 276

Query block: Would you mind telling me what boiling point value was observed for C=C(C)C(C)CCC (centres undefined) ?
Result block: 110

Query block: Using the record for Cc1ccc(O)c(O)c1 , report its boiling point.
Result block: 251

Query block: Name the recorded boiling point for CC(=O)OCCOC(C)=O .
Result block: 190

Query block: // boiling point lookup, key: c1ccc(CCCc2ccccc2)cc1
Result block: 300

Query block: Fill in: boiling point of COc1ccc(OC)cc1 is ___
Result block: 213

Query block: Dear colleague, I am looking for the recorded boiling point of the following compound: CC(F)(Cl)CCl (centres undefined)
Result block: 88.6

Query block: What does the data say about its boiling point? Entry: CC#CCCO
Result block: 154

Query block: # lookup: boiling point of CCCCCCI
Result block: 181

Query block: // boiling point lookup, key: CCC(=O)Nc1ccc(Cl)c(Cl)c1
Result block: 351

----------
Recorded melting point by entry
Numbers only here, please. The scale is °C.

Below, each entry is followed by its recorded melting point result.
| COMPOUND | melting point / °C |
| --- | --- |
| O=[N+]([O-])c1ccc(O)c([N+](=O)[O-])c1 | 116 |
| CCCCCCCCCC(C)=O | 15 |
| CCCn1c(=O)[nH]c(=O)c2[nH]cnc21 | 288 |

From here, focus on the item given below.
Query block: # get_value(readout='melting point', item= Cc1cc(C(=O)NCCc2ccc(S(=O)(=O)NC(=O)NN3CCCCCC3)cc2)no1 )
Result block: 189

----------
QUANTITY_KIND: boiling point
Please answer in the form of a number followed by its unit of measurement.

Query block: If you can, please state the reported boiling point value of CNCCc1ccccc1 .
Result block: 206 °C

Query block: // query boiling point value for entry CCOC(=O)CC(=O)CC(=O)OCC
Result block: 250 °C

Query block: Reported boiling point for Cc1cc(C)c([N+](=O)[O-])c(C)c1[N+](=O)[O-] : what is it?
Result block: 418 °C

Query block: Endpoint output: boiling point of COC(=O)c1cc(C)ccc1O . Value?
Result block: 244 °C

----------
Below: a set of entries, each annotated with reported melting point.
Form entry: value (°C) — number only.

| ITEM_SMILES | UNIT_TAG | melting point |
| --- | --- | --- |
| O=[N+]([O-])c1cccc(CCl)c1 | °C | 46 |
| [O-][n+]1cccc(O)c1 | °C | 191 |
| CC[N+](C)(CC)CCOC(=O)C1c2ccccc2Oc2ccccc21.[Br-] | °C | 174 |
| O=C(N/N=C/c1ccccc1O)c1ccncc1 | °C | 232 |
| O=C1C=CC(=O)C1 | °C | 37 |

Query block: # get_value(readout='melting point', item= Fc1cccc2ccccc12 )
Result block: -9

Query block: Find the recorded melting point belonging to CN(C(=O)C(Cl)Cl)c1ccc(O)cc1 and report it.
Result block: 175

Query block: Form field: reported melting point of FCC(F)(F)C(F)F
Result block: -82

Query block: Name the recorded melting point for COc1c(Cl)c(C)c2c(c1Cl)OC(=O)c1c(C)c(Cl)c(O)c(Cl)c1O2 .
Result block: 232

Query block: melting point for CCOC(=S)SSC(=S)OCC ?
Result block: 30

Query block: Please report the recorded melting point for CCCCC/C=C\C/C=C\CCCCCCCC(=O)O .
Result block: -8.5

Query block: Item O=C(O)CCCCCCCCC(=O)O has what recorded melting point?
Result block: 131

Query block: // query melting point value for entry O=c1c2ccccc2ccc2ccccc12
Result block: 88.5

Query block: Name the recorded melting point for CC(C)CC(=O)O .
Result block: -29.3

Query block: Tell me the measured melting point of CN(N=O)c1ccccc1 , please.
Result block: 14.7

----------
Classify on log10 vapour pressure (mmHg) using lo (below -2), med (-2 to below 0.5), hi (0.5 or more)

Query block: Class? Entry: CCOC(=O)Cn1c(=O)sc2cccc(Cl)c21
Result block: lo

Query block: // return the class label for ClCCCCCCl
Result block: med

----------
QUANTITY_KIND: boiling point

Example compounds with recorded boiling point:
| COMPOUND | QUANTITY_KIND | RESULT |
| --- | --- | --- |
| C=CC(Cl)Cl | boiling point | 84.4 °C |
| CC(C)C(=O)C(C)C | boiling point | 125 °C |
| CCOCOCOCC | boiling point | 141 °C |
| FCC(F)F | boiling point | 5 °C |
| FC(F)=C(F)C(F)(F)C(F)(F)C(F)(F)C(F)(F)C(F)(F)F | boiling point | 81 °C |

In the following, a different compound is considered.
Query block: Name the recorded boiling point for CC(C)(O)C#N .
Result block: 171 °C
